- TEST: Pharmacokinetic analysis in male rats, oral gavage
- Format: in vivo
- PARTICULARS: CD IGS (Sprague-Dawley derived), rat, plasma, orally at 3 mg/kg, compounds administered in combination
RECORDED_ENDPOINT: AUC
Write the figure, then the unit, nothing else.

State the recorded AUC for this entry: O=C(NO)c1ccc2ccn(CCOc3ccccc3)c2c1
5360 ng·h/mL

What do you have for O=C(NO)c1ccc2ccn(CCCc3ccccc3)c2c1 ?
1420 ng·h/mL

* * *

Target or system HDAC1 (Homo sapiens, UniProt Q13547): recorded pIC50 listed per item.
pIC50: −log10 of the molar value.

State the recorded pIC50 for this entry: O=C(/C=C/c1cccn1CCOc1ccccc1)NO
< 5.00

What do you have for COc1ccc(Cn2cccc2/C=C/C(=O)NO)cc1 ?
< 5.00

What do you have for O=C(NO)c1ccc2ccn(CCOc3cccc(Cl)c3)c2c1 ?
< 5.00

What do you have for O=C(/C=C/c1cccn1CCOc1cccc(F)c1)NO ?
5.00 to 6.00

* * *

Consider the following compounds; for each one, report its IC50.
- TEST_SYSTEM: HDAC2 (Homo sapiens, UniProt Q92769)
- Sequence (Q92769 whole entry, species assumed): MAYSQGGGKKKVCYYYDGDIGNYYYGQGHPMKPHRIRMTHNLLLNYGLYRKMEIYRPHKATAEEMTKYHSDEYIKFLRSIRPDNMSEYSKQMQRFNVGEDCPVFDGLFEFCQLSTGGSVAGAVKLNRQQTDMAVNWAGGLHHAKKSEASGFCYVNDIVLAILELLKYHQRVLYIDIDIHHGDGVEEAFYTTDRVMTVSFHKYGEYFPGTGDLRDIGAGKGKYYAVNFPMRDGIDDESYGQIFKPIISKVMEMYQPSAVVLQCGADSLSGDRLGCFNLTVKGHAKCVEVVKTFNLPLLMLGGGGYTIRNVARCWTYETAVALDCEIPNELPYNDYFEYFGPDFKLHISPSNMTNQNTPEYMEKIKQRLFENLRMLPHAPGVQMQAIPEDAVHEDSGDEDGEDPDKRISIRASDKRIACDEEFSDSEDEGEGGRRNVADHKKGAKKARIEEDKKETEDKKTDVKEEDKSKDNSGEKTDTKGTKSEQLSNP
- TEST: Histone deacetylase activity, continuous trypsin-coupled assay
- Assay type: biochemical
- PARTICULARS: 15 minutes preincubation; substrate acetyl-Gly-Ala-(N-acetyl-Lys)-AMC

State the recorded IC50 for this entry: COc1ccc(Cn2cc(CN(C)C)c3ccc(C(=O)NO)cc32)cc1
> 10 µM

What do you have for COc1ccc(Cn2ccc3ccc(C(=O)NO)cc32)cn1 ?
> 10 µM

What do you have for CN(C)Cc1ccc(OCCn2ccc3ccc(C(=O)NO)cc32)cc1 ?
> 10 µM

* * *

- TEST_SYSTEM: HDAC3 (Homo sapiens, UniProt O15379)
- Sequence (O15379 whole entry, species assumed): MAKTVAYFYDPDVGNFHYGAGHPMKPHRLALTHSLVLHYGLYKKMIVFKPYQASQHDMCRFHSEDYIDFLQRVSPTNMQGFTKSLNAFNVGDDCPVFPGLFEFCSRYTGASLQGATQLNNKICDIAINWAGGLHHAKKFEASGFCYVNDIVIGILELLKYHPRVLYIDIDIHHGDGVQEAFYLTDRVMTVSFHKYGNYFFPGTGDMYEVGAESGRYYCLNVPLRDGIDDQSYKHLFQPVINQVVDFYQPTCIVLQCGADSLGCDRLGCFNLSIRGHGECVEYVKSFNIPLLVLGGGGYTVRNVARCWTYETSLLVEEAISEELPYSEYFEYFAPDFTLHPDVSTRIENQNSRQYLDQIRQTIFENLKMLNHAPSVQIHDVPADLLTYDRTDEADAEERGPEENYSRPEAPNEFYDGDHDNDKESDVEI
- Sequence (Q9Y618 395-489 partner limits assumed, species assumed): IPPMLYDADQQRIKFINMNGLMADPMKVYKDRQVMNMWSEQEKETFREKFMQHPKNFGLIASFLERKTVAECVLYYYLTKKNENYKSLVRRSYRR
RECORDED_ENDPOINT: IC50

State the recorded IC50 for this entry: CN(C)Cc1cccc(OCCn2ccc3ccc(C(=O)NO)cc32)c1 [Compound 324]
> 10 µM
